Below, each entry is listed alongside its reported GI50.
System: SK-OV-3
Experiment: Growth inhibition of human SKOV3 cells incubated for 48 hrs by sulforhodamine B assay
Assay type: functional, cell-based
Conditions: SK-OV-3, 48 h, read-out: GI50
Express it in µM; write the number only.

molecule | GI50 (µM)
COc1cc(Cl)cc(-c2nn(-c3cccc(NC(=O)Nc4ccc(Cl)c(Cl)c4)c3)cc2-c2ccncc2)c1 | 3.5
O=C(Nc1cccc(-n2cc(-c3ccncc3)c(-c3cc(O)cc(Cl)c3)n2)c1)c1cc(C(F)(F)F)cc(C(F)(F)F)c1 | 1.08
O=C(Nc1cccc(-n2cc(-c3ccncc3)c(-c3cc(O)cc(Cl)c3)n2)c1)Nc1ccc(Cl)c(Cl)c1 | 3.42

Moving on to the next compound.
Query string: Please report the recorded GI50 for "COc1cc(Cl)cc(-c2nn(-c3cccc(NC(=O)Nc4ccc(Cl)c(C(F)(F)F)c4)c3)cc2-c2ccncc2)c1" .
Result string: 3.15
